tested on: Human immunodeficiency virus 1; assay: Effective concentration against wild-type HIV-1; type: functional, organism-based
# label = bin(measured EC50), where bins are bucket A = under 1 nM, bucket B = from 1 nM up to 3 nM, bucket C = 3 nM and over

CCN1c2ncc(CSc3ccncc3)cc2C(=O)N(C)c2ccc(Cl)nc21 bucket A
CCN1c2ncc(CSc3ccncc3C)cc2C(=O)Nc2c(C)cc(Cl)nc21 bucket C
CCN1c2ncc(CSc3cncnc3)cc2C(=O)Nc2c(C)cc(Cl)nc21 bucket C
CCN1c2ncc(CSc3nc(C)cc(C)n3)cc2C(=O)Nc2c(C)cc(Cl)nc21 bucket B
CCN1c2ncc(CSc3ccnc(C)c3)cc2C(=O)Nc2c(C)cc(Cl)nc21 bucket C

Please indicate the class for "CCN1c2ncc(CSc3nc4ccccc4o3)cc2C(=O)Nc2c(C)cc(Cl)nc21" based on its EC50.
bucket B

Please indicate the class for "Cc1cc(SCc2cnc3c(c2)C(=O)Nc2c(C)cc(Cl)nc2N3C2CC2)cc(C)n1" based on its EC50.
bucket B

Please indicate the class for "CCN1c2ncc(CSc3cc(C)nc(C)c3)cc2C(=O)Nc2c(C)cc(Cl)nc21" based on its EC50.
bucket B

Please indicate the class for "CCN1c2ncc(CSc3ccncc3)cc2C(=O)Nc2c(C)cc(Cl)nc21" based on its EC50.
bucket A

Please indicate the class for "CCN1c2ncc(CSc3cc(C)nc(C)c3)cc2C(=O)Nc2c(C)ccnc21" based on its EC50.
bucket A

* * *

experiment: Bioavailability in rats was evaluated; format: ADME, organism-based; details: rat, in vivo; read-out: Bioavailabiility
test_readout: bioavailability (%)
Value expressed in %; do not type the unit.

Item "CCN1c2ncc(CSc3cc(C)nc(C)c3)cc2C(=O)Nc2c(C)cc(Cl)nc21" has what recorded bioavailability?
76

* * *

molecular target: Human immunodeficiency virus type 1 reverse transcriptase (Human immunodeficiency virus 1, UniProt Q72547); experiment: Inhibitory activity against wild type reverse transcriptase (WT RT) of HIV-1
The entries below come with measured pIC50 values attached.
Lab note — pIC50 values are minus log10 of concentrations in M.

Study these solved cases before continuing.
CCN1c2ncc(CSc3cc(C)nc(C)c3)cc2C(=O)Nc2c(C)cc(F)nc21 8.16
CCN1c2ncc(CSc3nc4ccccc4o3)cc2C(=O)Nc2c(C)cc(Cl)nc21 8.10
CCN1c2ncc(CSc3ccncc3C)cc2C(=O)Nc2c(C)cc(Cl)nc21 7.96
CCN1c2ncc(CSc3cc(C)nc(C)c3)cc2C(=O)Nc2c(C)cc(Cl)nc21 8.15
CCN1c2ncc(CSc3nc(C)cc(C)n3)cc2C(=O)Nc2c(C)cc(Cl)nc21 8.22

For the next question, use this compound.
Item "Cc1cc(SCc2cnc3c(c2)C(=O)Nc2c(C)cc(Cl)nc2N3C2CC2)cc(C)n1" has what recorded pIC50?
7.92
